- system.tested: T1, recombinant antigen of the extracellular region of CD47 (Sino Biological, Cat: 12283-H08H) (human, UniProt Q08722 19-139)
- T1 construct: extracellular domain; also called recombinant CD47 extracellular region; CD47 recombinant protein
- experimental.protocol: Fortebio BLI, antibody on AHC sensor, CD47 extracellular region 100 nM;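 further: antibody held on the sensor through anti-human Fc capture, CD47 antigen in solution, association and dissociation phases each lasting 300 s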
measurement.label: pKd
Please treat pKd as minus the base-10 logarithm of the molar concentration.

Which pKd value is on record for hz140-Hm1/hz182-L (antibody, V domains shown) VH: QVQLVQSGAEVKKPGASVKVSCKASGYTFTNYVMHWVRQAPGQRLEWMGYINPYNDGIKYNEKFTGRVTITRDTSASTAYMELSSLRSEDTAVYYCAREGDFYANYGRLGFAYWGQGTLVTVSS VL: DIQMTQSPSSLSASVGDRVTITCRASQDISNYLNWYQQKPGKAPKLLLYYTSRLHSGVPSRFSGSGSGTDYTLTISSLQPEDFATYFCQQGAGRPYTFGGGTKVEIK ?
8.78

Which pKd value is on record for hz140-Hm12/hz182-L (antibody, V domains shown) VH: QVQLVQSGAEVKKPGASVKVSCKASGYTFTNYVMSWVRQAPGQRLEWMGYINPYNDAIKYNEKFTGRVTITRDTSASTAYMELSSLRSEDTAVYYCAREGDFYANYGRLGFAYWGQGTLVTVSS VL: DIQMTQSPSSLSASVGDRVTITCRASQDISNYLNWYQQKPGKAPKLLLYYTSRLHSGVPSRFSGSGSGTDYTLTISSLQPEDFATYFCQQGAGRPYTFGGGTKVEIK ?
7.83

Now look at this one.
Which pKd value is on record for hz140-Hm13/hz182-L (antibody, V domains shown) VH: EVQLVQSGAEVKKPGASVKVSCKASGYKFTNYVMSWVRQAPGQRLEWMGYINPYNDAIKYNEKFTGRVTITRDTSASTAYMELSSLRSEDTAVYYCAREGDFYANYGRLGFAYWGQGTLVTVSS VL: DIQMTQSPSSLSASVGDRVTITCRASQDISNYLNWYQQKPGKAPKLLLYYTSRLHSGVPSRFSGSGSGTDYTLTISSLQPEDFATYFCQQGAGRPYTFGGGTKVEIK ?
8.21
